- protocol: Antioxidant activity assessed as inhibition of linoleic acid autooxidation
- Format: physicochemical
observable: IC50 (µg/mL)
Give the quantity in µg/mL, number only.

Here are 3 compounds together with their reported answers.
# compound, IC50 / µg/mL
data = [
    ("Cc1c(C)c2c(c(C)c1O)CCC(C)(CCCC(C)CCCC(C)CCCC(C)C)O2 (racemic)", 7.7),
    ("OC[C@H]1O[C@@H](O[C@H]2[C@H]3c4c(O)cc(O)cc4O[C@]2(c2ccc(O)c(O)c2)Oc2cc(O)c4c(c23)O[C@H](c2ccc(O)c(O)c2)[C@H](O)C4)[C@H](O)[C@@H](O)[C@H]1O", 2.5),
    ("Oc1cc(O)c2c(c1)O[C@]1(c3ccc(O)c(O)c3)Oc3cc(O)c4c(c3[C@@H]2[C@H]1O[C@@H]1OC[C@@H](O)[C@H](O)[C@H]1O)O[C@H](c1ccc(O)c(O)c1)[C@H](O)[C@H]4c1c(O)cc(O)c2c1O[C@H](c1ccc(O)c(O)c1)[C@H](O)C2", 1.9),
]

Now consider a different compound.
For this compound ( OC[C@H]1O[C@@H](O[C@@H]2[C@@H]3c4c(O)cc(O)cc4O[C@]2(c2ccc(O)c(O)c2)Oc2cc(O)c4c(c23)O[C@H](c2ccc(O)c(O)c2)[C@H](O)[C@H]4c2c(O)cc(O)c3c2O[C@H](c2ccc(O)c(O)c2)[C@H](O)C3)[C@H](O)[C@@H](O)[C@H]1O ), measured IC50 is 2
